Biological target: TβRII kinase (Homo sapiens, UniProt P37173)
Sequence (P37173 193-567): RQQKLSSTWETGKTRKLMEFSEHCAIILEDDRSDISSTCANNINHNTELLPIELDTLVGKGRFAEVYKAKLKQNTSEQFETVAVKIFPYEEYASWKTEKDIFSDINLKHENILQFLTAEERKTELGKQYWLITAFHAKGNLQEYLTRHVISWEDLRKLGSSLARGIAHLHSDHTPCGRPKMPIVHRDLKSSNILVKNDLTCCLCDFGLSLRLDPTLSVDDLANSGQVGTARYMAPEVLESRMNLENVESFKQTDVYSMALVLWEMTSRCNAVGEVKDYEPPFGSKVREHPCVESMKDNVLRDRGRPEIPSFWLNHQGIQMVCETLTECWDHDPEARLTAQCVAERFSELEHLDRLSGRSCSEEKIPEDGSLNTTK
Response field class: string, computed from recorded IC50 by ranges bin 0: < 800 nM; bin 1: ≥ 800 nM and < 2000 nM; bin 2: ≥ 2000 nM

Answered examples (6):
Cc1ccc(C)c(CNC(=O)Nc2snc(OCc3cccnc3)c2C(N)=O)c1 [Example 4] | bin 1
CC1CCCCN1CCCNC(=O)Nc1snc(OCc2cccnc2)c1C(N)=O (centres unmarked) [Example 20] | bin 1
CCC(O)CNC(=O)Nc1snc(OCc2cccnc2)c1C(N)=O (centres unmarked) [Example 24] | bin 0
COc1cccc(OC)c1CNC(=O)Nc1snc(OC(C)c2cccnc2)c1C(N)=O (centres unmarked) [Example 26] | bin 0
NC(=O)c1c(OCc2cccnc2)nsc1NC(=O)NCCc1ccccc1 [Example 7] | bin 1
NC(=O)c1c(OCc2cccnc2)nsc1NC(=O)NCCc1ccccc1Cl [Example 11] | bin 2

Here is the next item to consider.
**Q:** State the class of the molecule shown: CN1CCCC1CCNC(=O)Nc1snc(OCc2cccnc2)c1C(N)=O (centres unmarked) [Example 19]
**A:** bin 0
